- Test system: LOX IMVI melanoma
- TEST SUMMARY: NCI-60 one-dose screen, 48 h (100 = growth as untreated, 0 = no growth, -100 = all killed)
- CONDITIONS USED: 10 µM unless noted
The panel holds about 83,000 compounds, 20% with a hit somewhere; the sample as a whole holds those more often.
Mark Met only for growth values smaller than 40%; exact matches and larger values are Not met.

Worked cases, answers included:
COc1cccc(NC(=O)c2cccc(C3CCc4c(cc(OC)c(OC)c4OC)O3)c2)c1 (configuration not stated) : Not met
O=C(CSc1nc2ccc([N+](=O)[O-])cc2[nH]1)Nc1cccc([N+](=O)[O-])c1 : Not met

Ask: Please state whether growth is below 40% for `COc1ccc2c(O)c(/C=C3\N=Nc4ccccc43)oc2c1C[C@H]1CCNC[C@H]1F`
Result: Met

Ask: Please state whether growth is below 40% for `COc1cc(C#Cc2ccc(=O)oc2C#Cc2ccccc2)cc(OC)c1OC`
Result: Met

Ask: Please state whether growth is below 40% for `O=C(O)CCCn1c(SCc2c(Cl)cccc2Cl)nc2ccsc2c1=O`
Result: Met

Ask: Please state whether growth is below 40% for `COc1ccc(-c2ccc(=O)oc2C#Cc2cc(OC)c(OC)c(OC)c2)cc1O`
Result: Met

Ask: Please state whether growth is below 40% for `CCn1cc(C2=C(c3cn(C)c4ncccc34)C(=O)NC2=O)c2cccnc21`
Result: Not met

====

- Tested on: MOLT-4 leukemia
- TEST SUMMARY: NCI-60 one-dose screen, 48 h (100 = growth as untreated, 0 = no growth, -100 = all killed)
- CONDITIONS USED: 10 µM unless noted
This is part of a sample that, as a whole, favours compounds with a hit. Of some 83,000 tested, about 20% had one in any assay.
Note to self: class labels come from recorded growth, ranges listed here: group A = under 30%, group B = from 30% up to 80%, group C = 80% and over

Worked cases, answers included:
CNC(=O)c1cc(Oc2ccc3nc(NC(=O)Nc4ccc(Cl)c(Cl)c4)sc3c2)ccn1 : group B
CC(=O)N(Cc1ccccc1)c1nc2ccc(O)c(CN(C)C)c2s1 : group C
COc1ccc2c(c1)c(-c1nonc1-c1cn(C)c3ccc(OC)cc13)cn2C : group A

Now, please, on to the next molecule.
Ask: Quick check: band for `CC(=O)c1c(Nc2ccc(F)c(F)c2F)[nH]c2c(F)cc(F)cc2c1=O`
Result: group A

====

- System: UACC-62 melanoma
- TEST SUMMARY: NCI-60 one-dose screen, 48 h
- CONDITIONS USED: 10 µM unless noted
The panel holds about 83,000 compounds, 20% with a hit somewhere; the sample as a whole holds those more often. Active and inactive are the calls of the source. Rule for the calls: active = growth percent below 10; inactive = the rest.
Outcome (select one): 1 (yes) (active), 0 (no) (inactive)

Worked cases, answers included:
CO[C@H](C(=O)[C@@H](O)[C@@H](C)O)[C@@H]1Cc2cc3cc(O[C@H]4C[C@@H](O[C@H]5C[C@@H](O)[C@H](O)C(C)O5)[C@H](O)C(C)O4)c(C)c(O)c3c(O)c2C(=O)[C@H]1O[C@H]1C[C@@H](O[C@H]2C[C@@H](O[C@H]3C[C@@H](OC)[C@H](O)C(C)O3)[C@@H](O)C(C)O2)C(O)(O)C(C)O1 (some centres undefined) : 1 (yes)
C=C(CO)[C@@H]1CC[C@]2(COC3CCCCO3)CC[C@]3(C)[C@H](CC[C@@H]4[C@@]5(C)C=C(C=O)C(=O)C(C)(C)[C@@H]5CC[C@]43C)[C@@H]12 (some centres undefined) : 1 (yes)
Cn1ccnc1C(=O)/C=C/c1ccc(C(=O)Nc2ccc(F)cc2)cc1 : 0 (no)
C#CC#CC#CC#CC#CC#CC#CC#CC[C@H]1OC[C@H](COC(=O)O[C@@H](C(=O)O[C@H]2C[C@@]3(O)[C@@H](OC(=O)c4ccccc4)[C@@H]4[C@]5(OC(C)=O)CO[C@@H]5C[C@H](O)[C@@]4(C)C(=O)[C@H](OC(C)=O)C(=C2C)C3(C)C)[C@@H](NC(=O)c2ccccc2)c2ccccc2)O1 : 0 (no)
Cc1[nH]c(C(=O)Nc2cccc(OC3CCNCC3)c2)c(Cl)c1Cl : 1 (yes)

Ask: Please let me know the test result on file for `COc1ncc2cc1NS(=O)(=O)c1cccc(c1)C(=O)NCC1=CC=C(S1)c1ncnc3c1SC2=C3C` .
Result: 1 (yes)

Ask: Please let me know the test result on file for `Cn1cccc1/C=C1\C(=O)Nc2ccccc21` .
Result: 0 (no)

Ask: Please let me know the test result on file for Cc1ccc(-c2cc(C(=O)N3N=C(c4ccc(N)cc4)CC3c3ccc(Cl)cc3)c3ccccc3n2)cc1 (centres undefined) .
Result: 0 (no)

Ask: Please let me know the test result on file for `Cc1nc2sc(C(=O)Nc3ccccc3)c(N)c2cc1C(=O)/C=C/c1ccccc1` .
Result: 1 (yes)

Ask: Please let me know the test result on file for `O=C(Nc1ncc(Cc2ccccc2Cl)s1)c1cccs1` .
Result: 0 (no)

Ask: Please let me know the test result on file for `Cn1cc(/C=C2/C(=O)Nc3ccccc32)c2ccccc21` .
Result: 0 (no)

Ask: Please let me know the test result on file for `CS(=O)(=O)Nc1cncc(-c2ccc3ncnc(Nc4ccc(F)c(Cl)c4)c3c2)c1` .
Result: 0 (no)

Ask: Please let me know the test result on file for `Cc1c2ccccc2nc2c1ccc1cccnc12` .
Result: 0 (no)

Ask: Please let me know the test result on file for `N#Cc1c(NC(=O)c2cccs2)[n+]([O-])c2ccc(Cl)cc2[n+]1[O-]` .
Result: 0 (no)
